Recorded Percent Effect values for a group of compounds are listed next.
Experimental System: Protein translocase subunit SecA (Escherichia coli (strain K12)) (UniProt P10408)
Sequence (P10408 whole entry): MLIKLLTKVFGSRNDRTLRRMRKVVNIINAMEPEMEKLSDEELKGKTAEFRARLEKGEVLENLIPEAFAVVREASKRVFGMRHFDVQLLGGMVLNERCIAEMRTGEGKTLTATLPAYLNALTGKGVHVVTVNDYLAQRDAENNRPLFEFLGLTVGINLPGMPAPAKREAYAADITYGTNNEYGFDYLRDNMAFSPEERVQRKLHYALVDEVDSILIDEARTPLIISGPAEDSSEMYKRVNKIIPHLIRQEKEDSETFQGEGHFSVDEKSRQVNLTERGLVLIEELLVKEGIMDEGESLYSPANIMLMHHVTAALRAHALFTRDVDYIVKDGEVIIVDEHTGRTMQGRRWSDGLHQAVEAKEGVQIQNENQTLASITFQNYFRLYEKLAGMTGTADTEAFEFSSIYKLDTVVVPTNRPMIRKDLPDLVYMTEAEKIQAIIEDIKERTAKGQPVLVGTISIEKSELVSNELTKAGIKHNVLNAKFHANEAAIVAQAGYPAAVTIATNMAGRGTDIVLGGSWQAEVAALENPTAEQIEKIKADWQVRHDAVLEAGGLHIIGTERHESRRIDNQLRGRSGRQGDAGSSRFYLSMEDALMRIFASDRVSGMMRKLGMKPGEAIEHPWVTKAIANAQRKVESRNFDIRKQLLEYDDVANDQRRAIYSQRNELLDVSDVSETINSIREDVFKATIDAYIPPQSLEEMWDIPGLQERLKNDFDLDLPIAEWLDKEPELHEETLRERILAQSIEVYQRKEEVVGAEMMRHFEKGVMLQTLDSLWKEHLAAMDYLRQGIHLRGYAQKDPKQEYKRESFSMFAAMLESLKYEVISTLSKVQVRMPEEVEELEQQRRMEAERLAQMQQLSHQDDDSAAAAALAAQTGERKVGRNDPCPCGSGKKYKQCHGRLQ
Assay Explanation: Assay to Identify E. coli SecA ATPase Inhibitors
Assay type: functional
Design: scale not given: direction of the effect not stated beside the values
Condition Details: 30 µM
Potency and affinity values are given separately.
Quantity Measured: Percent Effect

Compound | Experimental System | Quantity Measured | Observed Value
FC(F)(F)Cn1ccnc1CN1CCOC(Cn2cccn2)C1 (centres undefined) | Protein translocase subunit SecA (Escherichia coli (strain K12)) (UniProt P10408) | Percent Effect | -5.79%
Cn1cc(C(=O)N2CCCC(n3cccn3)C2)c2ccccc21 (centres undefined) | Protein translocase subunit SecA (Escherichia coli (strain K12)) (UniProt P10408) | Percent Effect | -1.25%
CN1N=C(C(=O)N(Cc2ccco2)C2CC2)CCC1=O | Protein translocase subunit SecA (Escherichia coli (strain K12)) (UniProt P10408) | Percent Effect | -3.94%
CCSCCC(=O)NS(=O)(=O)c1ccc2c(c1)OCCO2 | Protein translocase subunit SecA (Escherichia coli (strain K12)) (UniProt P10408) | Percent Effect | -2%
O=C(NCCN1CCNCC1)c1nc2ccccc2c(=O)[nH]1 | Protein translocase subunit SecA (Escherichia coli (strain K12)) (UniProt P10408) | Percent Effect | 3.26%
CS(=O)(=O)NCCNC(=O)C1(c2cccc(Cl)c2)CC1 | Protein translocase subunit SecA (Escherichia coli (strain K12)) (UniProt P10408) | Percent Effect | -0.857%
O=C(c1cnc(-c2ccco2)s1)N1CCCC1Cn1cccn1 (centres undefined) | Protein translocase subunit SecA (Escherichia coli (strain K12)) (UniProt P10408) | Percent Effect | -4.62%
Cc1nc(C)n(CC2CCCN2Cc2ccn(-c3ccccc3)n2)n1 (centres undefined) | Protein translocase subunit SecA (Escherichia coli (strain K12)) (UniProt P10408) | Percent Effect | 0.0578%
Cn1cc(C(=O)NC2CCN(Cc3ccn(C)c(=O)c3)CC2)cn1 | Protein translocase subunit SecA (Escherichia coli (strain K12)) (UniProt P10408) | Percent Effect | -0.0592%
COc1cccc(CNc2c(C)cnc3c2c(=O)n(C)c(=O)n3C)c1 | Protein translocase subunit SecA (Escherichia coli (strain K12)) (UniProt P10408) | Percent Effect | -2.5%
Cc1cc(C(=O)NCc2ccnc(N3CCN(C)CC3)c2)c(C)s1 | Protein translocase subunit SecA (Escherichia coli (strain K12)) (UniProt P10408) | Percent Effect | -2.97%
COCCN1C[C@@H](C)[C@@]2(COCCN(C(=O)c3cnc(C)cn3)C2)C1 | Protein translocase subunit SecA (Escherichia coli (strain K12)) (UniProt P10408) | Percent Effect | 0.144%
Cc1csc(N2CCN(CCc3ccccn3)CC2C)n1 (centres undefined) | Protein translocase subunit SecA (Escherichia coli (strain K12)) (UniProt P10408) | Percent Effect | -0.657%
Cc1c(F)cc(C(=O)O)cc1S(=O)(=O)Nc1ccc2c(c1)OCCO2 | Protein translocase subunit SecA (Escherichia coli (strain K12)) (UniProt P10408) | Percent Effect | -4.72%
O=C1CCc2cc(-c3csc(CCN4CCCC4=O)n3)ccc2N1 | Protein translocase subunit SecA (Escherichia coli (strain K12)) (UniProt P10408) | Percent Effect | -2.58%
COc1ccc(NC(=O)CCc2c(C)nc3cc(O)nn3c2C)cn1 | Protein translocase subunit SecA (Escherichia coli (strain K12)) (UniProt P10408) | Percent Effect | -3.54%
Cc1ccc(CN(C)C(=O)CN2CCCC2Cn2cccn2)o1 (centres undefined) | Protein translocase subunit SecA (Escherichia coli (strain K12)) (UniProt P10408) | Percent Effect | 0.121%
CCCC(=O)N1CC[C@@H]2[C@H](CC1)N(Cc1cccnc1)CCS2(=O)=O | Protein translocase subunit SecA (Escherichia coli (strain K12)) (UniProt P10408) | Percent Effect | -8.11%
Cc1occc1C(=O)N1CCC2(CC1)CC(c1cccnc1)C(=O)N2C (centres undefined) | Protein translocase subunit SecA (Escherichia coli (strain K12)) (UniProt P10408) | Percent Effect | -1.69%
CCc1nnc2n1CCN(Cc1ccc(C(=O)N3CCCC3)cc1)C2 | Protein translocase subunit SecA (Escherichia coli (strain K12)) (UniProt P10408) | Percent Effect | -2.96%
CC(C)c1cc(NCC(O)c2ccc(F)cc2)n2nccc2n1 (centres undefined) | Protein translocase subunit SecA (Escherichia coli (strain K12)) (UniProt P10408) | Percent Effect | -2.04%
O=C(Nc1nnc(C2CC2)s1)NC1CCN(Cc2ccccc2)C1 (centres undefined) | Protein translocase subunit SecA (Escherichia coli (strain K12)) (UniProt P10408) | Percent Effect | -5.17%
CS(=O)(=O)c1cccc(C(N)c2ccc(F)c(F)c2)c1 (centres undefined) | Protein translocase subunit SecA (Escherichia coli (strain K12)) (UniProt P10408) | Percent Effect | -6.37%
COC(=O)c1ccc(N2CCN(C(=O)c3cnn(C)c3)C(C)C2)cc1 (centres undefined) | Protein translocase subunit SecA (Escherichia coli (strain K12)) (UniProt P10408) | Percent Effect | -5.55%
